# tested-target: human QRFPR (hQRFPR) (Homo sapiens, UniProt Q96P65)
# Construct: expressed in transfected cells; host or cells: CHO cells, stably transfected with hQRFPR (G418 selection) and Gα16 (hygromycin B selection)
# Sequence (Q96P65 1-431): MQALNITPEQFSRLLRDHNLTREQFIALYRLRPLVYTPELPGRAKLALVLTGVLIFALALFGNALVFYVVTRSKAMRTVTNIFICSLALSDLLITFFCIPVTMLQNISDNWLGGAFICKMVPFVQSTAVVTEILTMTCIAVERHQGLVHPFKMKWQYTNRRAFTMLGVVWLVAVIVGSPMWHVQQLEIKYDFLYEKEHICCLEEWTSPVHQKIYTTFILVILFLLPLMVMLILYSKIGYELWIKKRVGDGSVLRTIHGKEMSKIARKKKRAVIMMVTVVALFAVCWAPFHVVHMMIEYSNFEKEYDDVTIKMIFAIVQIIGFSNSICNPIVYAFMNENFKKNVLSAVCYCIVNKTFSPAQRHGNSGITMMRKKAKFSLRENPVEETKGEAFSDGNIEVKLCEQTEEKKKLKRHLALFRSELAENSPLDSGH
# assay-procedure: Calcium mobilization assay, agonist mode ([Ca2+]i in Gα16-hQRFPR-transfected CHO cells)
# Format: cell-based
# recorded-conditions: [Ca2+]i mobilization in Gα16-hQRFPR-transfected CHO cells; mean of at least three independent experiments performed in triplicate; read-out: EC50
Non-standard residues stand in square brackets, D forms with d. Residues, ends and D or L forms follow the SMILES beside them. NMeF = CN[C@@H](Cc1ccccc1)C(=O)O; 2Thi = N[C@@H](Cc1cccs1)C(=O)O
measurement-type: EC50 (µM)

(A) N=C(N)NCCC[C@H](NC(=O)[C@H](Cc1ccccc1)NC(=O)[C@H](CO)NC(=O)[C@H](Cc1ccccc1)NC(=O)CNC(=O)CN)C(=O)N[C@@H](Cc1cccs1)C(N)=O [Compound 4, [Thi^26]26RFa(20–26)] (H-GGFSFR[2Thi]-NH2)
(B) CN(C(=O)CNC(=O)CN)[C@@H](Cc1ccccc1)C(=O)N[C@@H](CO)C(=O)N[C@@H](Cc1ccccc1)C(=O)N[C@@H](CCCNC(=N)N)C(=O)N[C@@H](Cc1ccccc1)C(N)=O [Compound 25, [NMePhe^22]26RFa(20–26)] (H-GG[NMeF]SFRF-NH2)
*Q* Which record shows the lower EC50: the first, A , or the second, B ? Which one? Tell me its label.
*A* A
(A: 7.23 µM, B: 15.1 µM)

====

# tested-target: human QRFPR (hQRFPR) (Homo sapiens)
# Construct: expressed in transfected cells; host or cells: CHO cells, stably transfected with hQRFPR (G418 selection) and Gα16 (hygromycin B selection)
# assay-procedure: Calcium mobilization assay, agonist mode ([Ca2+]i in Gα16-hQRFPR-transfected CHO cells)
# Format: cell-based
# recorded-conditions: [Ca2+]i mobilization in Gα16-hQRFPR-transfected CHO cells; mean of at least three independent experiments performed in triplicate; read-out: EC50
pEC50: −log10 of the molar value. Non-standard residues stand in square brackets, D forms with d. Residues, ends and D or L forms follow the SMILES beside them. Phe(4-Cl) = N[C@@H](Cc1ccc(Cl)cc1)C(=O)O; NMeF = CN[C@@H](Cc1ccccc1)C(=O)O; 2Thi = N[C@@H](Cc1cccs1)C(=O)O
measurement-type: pEC50

(1) N=C(N)NCCC[C@H](NC(=O)[C@H](Cc1ccc(Cl)cc1)NC(=O)[C@H](CO)NC(=O)[C@H](Cc1ccccc1)NC(=O)CNC(=O)CN)C(=O)N[C@@H](Cc1ccccc1)C(N)=O [Compound 15, [Pcp^24]26RFa(20–26)] (H-GGFS[Phe(4-Cl)]RF-NH2)
(2) N=C(N)NCCC[C@H](NC(=O)[C@H](Cc1ccccc1)NC(=O)[C@H](CO)NC(=O)[C@@H](Cc1c[nH]c2ccccc12)NC(=O)CNC(=O)CN)C(=O)N[C@@H](Cc1ccccc1)C(N)=O [Compound 37, [DTrp^22]26RFa(20–26)] (H-GG[dW]SFRF-NH2)
(3) CN(C(=O)[C@H](CO)NC(=O)[C@H](Cc1ccccc1)NC(=O)CNC(=O)CN)[C@@H](Cc1ccccc1)C(=O)N[C@@H](CCCNC(=N)N)C(=O)N[C@@H](Cc1ccccc1)C(N)=O [Compound 26, [NMePhe^24]26RFa(20–26)] (H-GGFS[NMeF]RF-NH2)
(4) N=C(N)NCCC[C@H](NC(=O)[C@H](Cc1ccccc1)NC(=O)[C@H](CO)NC(=O)[C@H](Cc1ccccc1)NC(=O)CNC(=O)CN)C(=O)N[C@@H](Cc1ccc(Cl)cc1)C(N)=O [Compound 16, [Pcp^26]26RFa(20–26)] (H-GGFSFR[Phe(4-Cl)]-NH2)
(5) N=C(N)NCCC[C@H](NC(=O)[C@H](Cc1cccs1)NC(=O)[C@H](CO)NC(=O)[C@H](Cc1ccccc1)NC(=O)CNC(=O)CN)C(=O)N[C@@H](Cc1ccccc1)C(N)=O [Compound 3, [Thi^24]26RFa(20–26)] (H-GGFS[2Thi]RF-NH2)
*Q* List these items ordered by pEC50, big to small. Submit the labels in the order that the ranking request calls for.
*A* 4, 1, 3, 5, 2
(4: 6.34, 1: 6.07, 3: 5.87, 5: 5.60, 2: 5.21)
